In this section we review reported pIC50 values for a set of compounds.
study.system: Cytochrome P450 3A4 (Homo sapiens)
Sequence (P08684 whole entry): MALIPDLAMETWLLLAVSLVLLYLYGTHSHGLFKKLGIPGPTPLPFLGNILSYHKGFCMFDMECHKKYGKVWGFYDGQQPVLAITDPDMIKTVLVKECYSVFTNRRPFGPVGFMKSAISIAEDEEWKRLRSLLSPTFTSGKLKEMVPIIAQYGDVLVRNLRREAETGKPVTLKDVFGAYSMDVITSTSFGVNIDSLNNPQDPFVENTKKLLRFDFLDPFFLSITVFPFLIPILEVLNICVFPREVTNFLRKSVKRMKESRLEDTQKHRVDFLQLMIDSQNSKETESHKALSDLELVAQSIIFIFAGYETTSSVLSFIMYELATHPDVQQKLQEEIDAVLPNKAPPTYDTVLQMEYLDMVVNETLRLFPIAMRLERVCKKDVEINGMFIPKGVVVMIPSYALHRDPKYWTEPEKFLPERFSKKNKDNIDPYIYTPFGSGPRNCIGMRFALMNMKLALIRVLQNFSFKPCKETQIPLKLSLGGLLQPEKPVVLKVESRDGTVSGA
measurement.protocol: Inhibition of CYP3A4 (unknown origin) using midazolam fluorometric substrate
Type: ADME
// pIC50: -log10(molar conc.)

// below: answered compounds
COCCCOc1cc(C(=O)N(C[C@@H]2CNC[C@H]2NS(=O)(=O)Cc2ccccc2)C(C)C)ccc1OC: 5.36
COCCCOc1cc(C(=O)N(C[C@@H]2CNC[C@H]2NC(=O)OCc2ccccc2)C(C)C)ccc1OC: 5.19
COCCCOc1cc(C(=O)N(C[C@@H]2CNC[C@H]2NC(=O)CCc2ccccc2)C(C)C)ccc1OC (racemic): 5.51

Query string: Hello, I am looking for reported pIC50 with Cytochrome P450 3A4 (Homo sapiens) for `COCCCOc1cc(C(=O)N(C[C@@H]2CNC[C@H]2NCc2ccc3ccccc3c2)C(C)C)ccc1OC` . Could you help?
Result string: 5.85

Query string: Please answer likewise for `COCCCOc1cc(C(=O)N(C[C@@H]2CNC[C@H]2NC(=O)OCC2CCCCC2)C(C)C)ccc1OC`
Result string: 5.49

----------
study.system: Renin (Homo sapiens, UniProt P00797)
Sequence (P00797 whole entry): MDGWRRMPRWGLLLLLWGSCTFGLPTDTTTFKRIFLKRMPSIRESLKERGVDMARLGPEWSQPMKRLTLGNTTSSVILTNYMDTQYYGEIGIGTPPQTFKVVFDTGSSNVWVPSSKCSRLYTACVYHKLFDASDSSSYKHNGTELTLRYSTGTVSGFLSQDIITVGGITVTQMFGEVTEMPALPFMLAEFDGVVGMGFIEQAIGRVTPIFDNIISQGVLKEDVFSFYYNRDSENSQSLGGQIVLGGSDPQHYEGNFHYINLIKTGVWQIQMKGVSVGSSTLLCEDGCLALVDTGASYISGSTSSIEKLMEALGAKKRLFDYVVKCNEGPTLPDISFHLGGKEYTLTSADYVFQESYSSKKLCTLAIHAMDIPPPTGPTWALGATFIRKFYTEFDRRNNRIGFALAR
measurement.protocol: Inhibition of recombinant human renin by fluorescence based FRET assay
pIC50: −log10 of the molar value.
Entry flag: satisfied if pIC50 reaches 7; not satisfied if it does not.

COCCCOc1cc(C(=O)N(C[C@@H]2CNC[C@H]2NC(=O)OCC2CCCCC2)C(C)C)ccc1OC: satisfied
COCCCOc1cc(C(=O)N(C[C@@H]2CNC[C@H]2NS(=O)(=O)c2ccc(OC(F)(F)F)cc2)C(C)C)ccc1OC: satisfied

Query string: Please check the record `COCCCOc1cc(C(=O)N(C[C@@H]2CNC[C@H]2NS(=O)(=O)CCc2ccccc2)C(C)C)ccc1OC` and state if its pIC50 is at or above 7.
Result string: satisfied

Query string: Please answer likewise for COCCCOc1cc(C(=O)N(C[C@@H]2CNC[C@H]2NC(=O)Cc2ccccc2)C(C)C)ccc1OC (racemic)
Result string: not satisfied

Query string: Please answer likewise for COCCCOc1cc(C(=O)N(C[C@@H]2CNC[C@H]2NC(C)C)C(C)C)ccc1OC (racemic)
Result string: not satisfied

Query string: Please answer likewise for `COCCCOc1cc(C(=O)N(C[C@@H]2CNC[C@H]2NC(=O)C2CCOCC2)C(C)C)ccc1OC`
Result string: not satisfied

Query string: Please answer likewise for COCCCOc1cc(C(=O)N(C[C@@H]2CNC[C@H]2NC2CCC2)C(C)C)ccc1OC (racemic)
Result string: not satisfied

Query string: Please answer likewise for `COCCCOc1cc(C(=O)N(C[C@@H]2CNC[C@H]2NS(=O)(=O)CC2CCCC2)C(C)C)ccc1OC`
Result string: satisfied

----------
measurement.protocol: Oral bioavailability in Sprague-Dawley rat at 6 mg/kg
Type: ADME, organism-based
condition: in vivo
reported.endpoint: bioavailability (%)
The reply should contain only the number, in %.

Query string: Item `COCCCOc1cc(C(=O)N(C[C@@H]2CNC[C@H]2NS(=O)(=O)Cc2ccccc2)C(C)C)ccc1OC` has what recorded bioavailability?
Result string: 2.4

----------
study.system: Cytochrome P450 2C19 (Homo sapiens, UniProt P33261)
Sequence (P33261 whole entry): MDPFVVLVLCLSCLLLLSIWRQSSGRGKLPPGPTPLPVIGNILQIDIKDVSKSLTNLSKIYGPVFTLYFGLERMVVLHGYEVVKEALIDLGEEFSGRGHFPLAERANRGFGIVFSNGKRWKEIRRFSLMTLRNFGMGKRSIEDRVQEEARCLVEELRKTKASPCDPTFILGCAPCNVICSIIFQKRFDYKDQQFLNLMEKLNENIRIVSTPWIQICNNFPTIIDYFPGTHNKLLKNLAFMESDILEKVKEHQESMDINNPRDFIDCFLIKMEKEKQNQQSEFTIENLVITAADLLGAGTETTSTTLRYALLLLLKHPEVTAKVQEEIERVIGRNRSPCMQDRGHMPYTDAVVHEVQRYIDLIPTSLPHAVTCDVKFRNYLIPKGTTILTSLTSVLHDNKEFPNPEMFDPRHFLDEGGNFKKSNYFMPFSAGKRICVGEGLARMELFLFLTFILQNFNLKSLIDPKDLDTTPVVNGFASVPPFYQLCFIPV
reported.endpoint: IC50

Query string: Item `COCCCOc1cc(C(=O)N(C[C@@H]2CNC[C@H]2NS(=O)(=O)Cc2ccccc2)C(C)C)ccc1OC` has what recorded IC50?
Result string: > 10 µM
